Entry source: ChEMBL document CHEMBL1201862

Tested on: SN12C
ASSAY_DETAILS: NCI tumour cell line growth inhibition, 48 h
The source made the active and inactive calls. No stated cut-off is given here; in the data, active = GI50 up to about 1.1 µM and inactive = higher.
As shown below, each of these compounds has a reported GI50 value.

COMPOUND | GI50
c1ccc2c(-c3csc(-c4c[nH]c5ccccc45)n3)c[nH]c2c1 | > 100 µM (inactive)
CCOP(=O)(OCC)C(F)(F)CC1CCCCC1 | > 10 µM (inactive)
O=CNC(Cc1c[nH]cn1)C(=O)O (stereo unspecified) | > 100 µM (inactive)
CN(C)CCS/C(=N\c1ccccc1)N1C=COC=C1 | 27.5 µM (inactive)
CC(=O)Nc1ccc(C(=O)NN2C(=O)CSC2c2ccc(O)cc2)cc1 (stereo unspecified) | > 100 µM (inactive)

In plain terms, Cn1cc2ccccc2c1-c1nc(F)nc(OCC(=O)[C@H]2CCC3[C@@H]4CCC5=CC(=O)CC[C@]5(C)C4[C@@H](O)C[C@@]32C)n1 (stereo partly specified) has a documented GI50 of 15.7 µM (inactive)

In plain terms, `Nc1c2c(nc3ccccc13)CCCc1ccccc1-2` has a documented GI50 of 12.8 µM (inactive)

In plain terms, `O=[N+]([O-])c1ccc(Cc2nc3cc4ccccc4cc3[nH]2)cc1C(F)(F)F` has a documented GI50 of 18.7 µM (inactive)

In plain terms, `O=C(CCc1cc(-c2ccc(F)cc2)n[nH]1)N(Cc1ccccc1)Cc1ccccc1` has a documented GI50 of > 100 µM (inactive)

In plain terms, `O=c1cc(O)c2c(O)cc(O)cc2o1` has a documented GI50 of > 100 µM (inactive)

In plain terms, `CC(C)N(C(=O)c1cccc(C(=O)N(C(C)C)C(C)C)c1)C(C)C` has a documented GI50 of > 100 µM (inactive)
